// reported residual activity for each item listed
- testSystem: Tyrosine-protein kinase Yes (Homo sapiens) (UniProt P07947)
- Sequence (P07947 2-543 limits assumed): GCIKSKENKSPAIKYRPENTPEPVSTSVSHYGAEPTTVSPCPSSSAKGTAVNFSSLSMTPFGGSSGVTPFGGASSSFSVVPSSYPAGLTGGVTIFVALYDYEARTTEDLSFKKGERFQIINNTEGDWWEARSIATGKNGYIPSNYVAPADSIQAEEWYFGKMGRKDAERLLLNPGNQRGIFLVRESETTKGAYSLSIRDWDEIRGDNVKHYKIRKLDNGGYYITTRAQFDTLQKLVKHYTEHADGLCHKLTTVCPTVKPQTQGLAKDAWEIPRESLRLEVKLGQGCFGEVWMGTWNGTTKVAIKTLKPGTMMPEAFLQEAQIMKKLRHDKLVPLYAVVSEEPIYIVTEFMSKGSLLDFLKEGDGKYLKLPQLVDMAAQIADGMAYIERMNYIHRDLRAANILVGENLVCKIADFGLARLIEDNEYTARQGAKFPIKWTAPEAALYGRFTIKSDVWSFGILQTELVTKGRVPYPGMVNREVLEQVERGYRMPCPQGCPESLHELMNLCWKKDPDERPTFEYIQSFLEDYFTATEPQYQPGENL
- reportedConditions: at 1 µM
Value expressed in %; do not type the unit.

| molecule | residual activity / % |
| --- | --- |
| O=C(c1ccccc1)c1ccc(N2CCOCC2)cc1O | 115 |
| CC(C)[C@H](CO)Nc1nc(Nc2cc(N)cc(Cl)c2)c2ncn(C(C)C)c2n1 | 5 |
| COc1cc2ncnc(Nc3cccc(Cl)c3)c2cc1OC | 30 |
| CCN(CC)CCNC(=O)c1c(C)[nH]c(/C=C2\C(=O)Nc3ccc(Cl)cc32)c1C | 2 |
| O=c1cc(N2CCOCC2)oc2c1ccc1ccccc12 | 103 |
| O=C1NC(=O)c2c1c1c3ccccc3[nH]c1n1cncc21 | 90 |
| Nc1nccc(-c2c(-c3ccc(F)cc3)ncn2C2CCNCC2)n1 | 78 |
| NC(=O)Nc1sc(-c2ccc(F)cc2)cc1C(N)=O | 38 |
| N#Cc1c(NC(=O)c2cccc3ccccc23)sc2c1CCCC2 | 129 |
| COc1ccc(CNC(=O)Nc2ncc([N+](=O)[O-])s2)cc1 | 10 |

*Q* # returns recorded residual activity (system: Tyrosine-protein kinase Yes (Homo sapiens) (UniProt P07947)) for COc1cc2nccc(Oc3ccc(NC(=S)NC(=O)c4ccccc4C)cc3)c2cc1OC
*A* 15

*Q* # returns recorded residual activity (system: Tyrosine-protein kinase Yes (Homo sapiens) (UniProt P07947)) for CCCC(=O)Oc1ccc2[nH]c(C(=O)c3cc4ccccc4[nH]3)cc2c1
*A* 104

*Q* # returns recorded residual activity (system: Tyrosine-protein kinase Yes (Homo sapiens) (UniProt P07947)) for O=C(Nc1ccc(Cl)cc1)c1ccccc1NCc1ccncc1
*A* 117

*Q* # returns recorded residual activity (system: Tyrosine-protein kinase Yes (Homo sapiens) (UniProt P07947)) for Nc1nc(Nc2ccc(S(N)(=O)=O)cc2)nn1C(=O)c1c(F)cccc1F
*A* 50
